molecular target: UniProt:P17252; assay: Caliper, Mobility shift assay off-chip; conditions: compound 0.2 µM
VALUE KIND: inhibition (%)
State just the number; it will be interpreted in %.

{"SMILES RECORD": "Cc1ccc(Nc2nccc(N(C)c3ccc4c(C)n(C)nc4c3)n2)cc1S(N)(=O)=O", "TEST TARGET": "UniProt:P17252", "UNIT STRING": "%", "MEASURED": -1}
{"SMILES RECORD": "COc1cc2c(Oc3ccc4[nH]c(C)cc4c3F)ncnc2cc1OCCCN1CCCC1", "TEST TARGET": "UniProt:P17252", "UNIT STRING": "%", "MEASURED": 0.3}
{"SMILES RECORD": "CNC(=O)c1cc(Oc2ccc(NC(=O)Nc3ccc(Cl)c(C(F)(F)F)c3)cc2)ccn1", "TEST TARGET": "UniProt:P17252", "UNIT STRING": "%", "MEASURED": 12.2}

Continue with the compound presented below.
Can you share its inhibition? I mean this compound: CCN(CC)CCNC(=O)c1c(C)[nH]c(/C=C2\C(=O)Nc3ccc(F)cc32)c1C
0.1

====

molecular target: UniProtKB Q15759; test: Caliper, Mobility shift assay off-chip; conditions: compound 0.02 µM
Sequence (Q15759 whole entry, looked up): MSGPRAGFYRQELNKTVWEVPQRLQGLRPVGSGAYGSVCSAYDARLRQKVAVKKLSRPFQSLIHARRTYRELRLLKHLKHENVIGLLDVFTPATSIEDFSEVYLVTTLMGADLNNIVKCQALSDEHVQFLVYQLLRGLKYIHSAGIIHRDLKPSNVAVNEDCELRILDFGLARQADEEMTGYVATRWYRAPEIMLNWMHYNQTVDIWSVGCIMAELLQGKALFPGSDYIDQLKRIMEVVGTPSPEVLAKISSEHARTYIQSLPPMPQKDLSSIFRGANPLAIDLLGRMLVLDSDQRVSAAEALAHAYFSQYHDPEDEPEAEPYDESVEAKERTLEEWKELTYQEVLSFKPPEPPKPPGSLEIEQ
VALUE KIND: inhibition (%)
Supply the numeric figure in %, leaving out any unit text.

Study these solved cases before continuing.
{"SMILES RECORD": "CNC(=O)c1ccccc1Sc1ccc2c(/C=C/c3ccccn3)n[nH]c2c1", "TEST TARGET": "UniProtKB Q15759", "MEASURED": -3.8}
{"SMILES RECORD": "COc1cc2c(Oc3ccc4[nH]c(C)cc4c3F)ncnc2cc1OCCCN1CCCC1", "TEST TARGET": "UniProtKB Q15759", "MEASURED": -2.6}
{"SMILES RECORD": "CNC(=O)c1cc(Oc2ccc(NC(=O)Nc3ccc(Cl)c(C(F)(F)F)c3)cc2)ccn1", "TEST TARGET": "UniProtKB Q15759", "MEASURED": 10.4}

Note: attention shifts to another entry.
For Cc1ccc(Nc2nccc(N(C)c3ccc4c(C)n(C)nc4c3)n2)cc1S(N)(=O)=O , what is its reported inhibition?
-6.7

====

target: PRKCZ (human); test: Caliper, Mobility shift assay off-chip; details: compound 0.2 µM
Below, each of the compounds is paired with its reported inhibition value.
Number only, in %; omit the unit.

{"SMILES RECORD": "CNC(=O)c1cc(Oc2ccc(NC(=O)Nc3ccc(Cl)c(C(F)(F)F)c3)cc2)ccn1", "UNIT STRING": "%", "inhibition": 11.3}

Requested read-out: inhibition. Entry: CCN(CC)CCNC(=O)c1c(C)[nH]c(/C=C2\C(=O)Nc3ccc(F)cc32)c1C
-1.5

Dear colleague, I am looking for the recorded inhibition of the following compound: COc1cc2c(Oc3ccc4[nH]c(C)cc4c3F)ncnc2cc1OCCCN1CCCC1
1.5

Give its inhibition value. Item: Cc1ccc(Nc2nccc(N(C)c3ccc4c(C)n(C)nc4c3)n2)cc1S(N)(=O)=O
-1.1

====

biological target: RPS6KB1 (human) (UniProt P23443); assay: Caliper, Mobility shift assay off-chip; settings: compound 0.02 µM
Sequence (P23443 whole entry, looked up): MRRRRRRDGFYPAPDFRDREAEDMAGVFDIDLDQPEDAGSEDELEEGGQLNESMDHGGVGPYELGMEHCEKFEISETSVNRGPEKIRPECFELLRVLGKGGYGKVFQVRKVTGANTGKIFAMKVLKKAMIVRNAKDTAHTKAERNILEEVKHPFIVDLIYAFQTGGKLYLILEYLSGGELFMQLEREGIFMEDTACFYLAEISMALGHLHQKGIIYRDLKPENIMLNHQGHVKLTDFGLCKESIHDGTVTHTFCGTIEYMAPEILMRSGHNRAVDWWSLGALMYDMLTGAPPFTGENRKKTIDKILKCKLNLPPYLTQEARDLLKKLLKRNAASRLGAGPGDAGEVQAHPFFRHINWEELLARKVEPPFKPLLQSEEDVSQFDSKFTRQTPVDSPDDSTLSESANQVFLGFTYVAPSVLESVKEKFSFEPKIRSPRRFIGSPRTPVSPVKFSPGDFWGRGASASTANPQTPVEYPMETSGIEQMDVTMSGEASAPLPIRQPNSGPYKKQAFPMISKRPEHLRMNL
Reported inhibition is given for each of the following compounds.
Enter your answer as a number in %; do not include the unit.

Before answering, review these 3 worked examples.
{"SMILES RECORD": "COc1cc2c(Oc3ccc4[nH]c(C)cc4c3F)ncnc2cc1OCCCN1CCCC1", "inhibition, %": 8.1}
{"SMILES RECORD": "Cc1ccc(Nc2nccc(N(C)c3ccc4c(C)n(C)nc4c3)n2)cc1S(N)(=O)=O", "inhibition, %": 11.1}
{"SMILES RECORD": "CNC(=O)c1cc(Oc2ccc(NC(=O)Nc3ccc(Cl)c(C(F)(F)F)c3)cc2)ccn1", "inhibition, %": 8.1}

Then there is this compound:
I would be grateful if you could share the reported inhibition for CNC(=O)c1ccccc1Sc1ccc2c(/C=C/c3ccccn3)n[nH]c2c1 .
10.6

Reference source for all entries: the kinase profiling compilation of Christmann-Franck et al. (2016)
